experiment: chemical genetic growth profiling, strain panel (AID 1159580);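 also: tested at 20 µM; growth read once vehicle control cultures reached saturation at 30 °C; 1 = growth at the plate median or of vehicle wells; lower values mean less growth of the strain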; conditions: S. cerevisiae deletion strains, growth OD, locus YNR049C, strain mso1, active compounds read low
Out of some 5,500 compounds screened, about 2,000 (36%) were called active. Roughly 18% stayed inconclusive and do not appear here. The list shows a part of the results.
// values below are reported normalized growth
Answer using only a numeral; do not append any unit.

Illustrative cases are given below, each with its answer.
Molecule	normalized growth
COc1cc(OC)c2c(=O)c(OC)c(-c3ccc(OC)c(OC)c3)oc2c1	1.02
C[C@@H]1O[C@@H](OC[C@H]2OC(Oc3c(-c4ccc(OCCO)c(OCCO)c4)oc4cc(OCCO)cc(O)c4c3=O)[C@H](O)[C@@H](O)[C@@H]2O)[C@H](O)[C@H](O)[C@H]1O (stereo not given in full)	0.965
CC(C)c1c(O)ccc2c1CCC1C(C)(C)CCC[C@]21C (stereo not given in full)	0.994
CCOC(=O)c1c(C)cc(OC)cc1O	0.967

Okay, now this molecule:
Exercise: Provide one value: measured normalized growth of CCN(Cc1ccncc1)C(=O)C(CO)c1ccccc1 (stereo not given)
Solution: 1.04

----------
// reported normalized growth for each item listed
experiment: chemical genetic growth profiling, strain panel (AID 1159580); conditions: S. cerevisiae deletion strains, growth OD, locus YIL066C, strain RNR3, active compounds read low
In all, about 5,500 compounds went through this assay and about 2,000 (36%) were called active. Inconclusive results (about 18%) are left out. The list shows a part of the results.
Reply with the value as a number alone.

Example results:
Compound	normalized growth
CCCCCCC(C)OC(=O)COc1ccc(Cl)cc1Cl (centres undefined)	0.963
CC(C)C1COc2cc3oc(=O)ccc3cc2O1 (centres undefined)	0.223
C[C@]12CCC3c4ccc(OS(=O)(=O)O)cc4CCC3C1CC[C@H]2O (some centres undefined)	0.984
COc1ccc2c(c1)CCC1C2CC[C@@]2(C)C1CC[C@@H]2O (some centres undefined)	0.625
COc1ccc2c(c1)CCC1C2CCC2(C)C1C[C@@H](O)C2O (some centres undefined)	0.98
C=C(C)[C@H]1COc2cc3oc(=O)ccc3cc2O1	0.407
NC(CSCSCC(N)C(=O)O)C(=O)O (centres undefined)	1.01
CC[n+]1c(-c2ccccc2)c2cc(N)ccc2c2ccc(N)cc21	0.827

Exercise: // fetch normalized growth given entry `O=c1c(O)c(-c2ccc(O)c(O)c2)oc2cc(O)cc(O)c12`
Solution: 0.882

----------
assay: chemical genetic growth profiling, strain panel (AID 1159580); details: S. cerevisiae deletion strains, growth OD, locus YAL030W, strain snc1
About 2,000 (36%) of roughly 5,500 compounds were called active. Not shown: some 18% with an inconclusive outcome. No stated cut-off is given here; in the data, active means normalized growth mostly below about 0.91 (no sharp cut-off); inconclusive means no clear call, values can overlap the other calls; inactive means mostly above about 0.92. Some of the results follow.
Assign a class; possible classes are YES (active), NO (inactive)

Below, 4 compounds whose answers are already recorded.
Compound	Category
CCCCCCC(C)OC(=O)COc1ccc(Cl)cc1Cl (stereo not given)	NO
CCCC(C)(COC(N)=O)COC(=O)NC(C)C (stereo not given)	NO
CC(C)N(CCC(C(N)=O)(c1ccccc1)c1ccccn1)C(C)C (stereo not given)	YES
CCc1cc(C(N)=S)ccn1	NO

Exercise: Can you look up the reported call for `CN(C)c1ccc2nc3ccc(=[N+](C)C)cc-3sc2c1` for me?
Solution: NO

Exercise: Hey, what did the test say about `COc1ccc(-c2cc(=O)c3c(O)cc(O[C@H]4O[C@H](CO[C@@H]5O[C@@H](C)[C@H](O)[C@@H](O)[C@H]5O)[C@@H](O)[C@H](O)[C@H]4O)cc3o2)cc1` ?
Solution: NO

Exercise: I would be grateful if you could indicate the recorded call for CC(CC(C(N)=O)(c1ccccc1)c1ccccc1)N(C)C (stereo not given) .
Solution: NO

Exercise: # fetch the recorded call for CN[C@@H]1[C@@H](O)C(OC2[C@@H](N)C[C@@H](N)[C@H](O[C@H]3O[C@H](C(C)O)[C@@H](O)[C@H](O)[C@H]3N)[C@H]2O)OC[C@]1(C)O (stereo not given in full) here
Solution: NO

----------
assay: chemical genetic growth profiling, strain panel (AID 1159580); details: S. cerevisiae deletion strains, growth OD, locus YMR058W, strain fet3, active compounds read low
In all, about 5,500 compounds went through this assay and about 2,000 (36%) were called active. Not shown: some 18% with an inconclusive outcome. The list shows a part of the results.
Quantity kind: normalized growth
# respond with the number and nothing more

CCOC(=O)c1c(C)cc(OC)cc1O 0.968
CCOC(=O)c1c(C)cc(O)cc1O 0.914
Cc1cc(OC(=O)c2c(C)cc(O)cc2O)cc(O)c1C(=O)O 0.99
COc1c2ccoc2cc2oc(=O)ccc12 0.953
COc1cc2occc2c2oc(=O)ccc12 0.988
COC(=O)c1c(C)cc(OC)cc1O 0.978

Please look at the following molecule next.
Exercise: For the molecule `COC(=O)c1c(C)cc(O)cc1O` , give its measured normalized growth value.
Solution: 1.01

----------
experiment: chemical genetic growth profiling, strain panel (AID 1159580);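 also: tested at 20 µM; growth read once vehicle control cultures reached saturation at 30 °C; 1 = growth at the plate median or of vehicle wells; lower values mean less growth of the strain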; conditions: S. cerevisiae deletion strains, growth OD, locus YMR205C, strain PFK2, active compounds read low
The whole screen tested about 5,500 compounds, of which about 2,000 (36%) were called active. Inconclusive results (about 18%) are left out. The list shows a part of the results.
Quantity kind: normalized growth
Hey, just send me the number, nothing else.

Solved cases below.
Compound	Quantity kind	Readout value
C=C[C@H]1CN2CC[C@H]1C[C@@H]2[C@@H](OC(=O)OCC)c1ccnc2ccc(OC)cc12	normalized growth	0.951
NC(N)=NC(=O)c1nc(Cl)c(N)nc1N	normalized growth	1.02
CC(=O)Oc1ccc2c(c1OC(C)=O)OCC1(O)Cc3c(cc(OC(C)=O)c(OC(C)=O)c3OC(C)=O)C21 (stereo unspecified)	normalized growth	0.974
C[N+](C)(C)CC(O)CC(=O)O (stereo unspecified)	normalized growth	0.989
Oc1cc2c(cc1O)C1c3ccc(O)c(O)c3OCC1(O)C2 (stereo unspecified)	normalized growth	1.02

# next compound below
Exercise: Please indicate normalized growth recorded for C[C@]12C=CC(=O)C=C1CCC1C2[C@@H](O)C[C@@]2(C)C1CC[C@]2(O)C(=O)COP(=O)(O)O (stereo partly specified)
Solution: 0.992

----------
experiment: chemical genetic growth profiling, strain panel (AID 1159580);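 also: tested at 20 µM; growth read once vehicle control cultures reached saturation at 30 °C; 1 = growth at the plate median or of vehicle wells; lower values mean less growth of the strain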; conditions: S. cerevisiae deletion strains, growth OD, locus YFR010W, strain ubp6
The campaign covered roughly 5,500 compounds. About 2,000 (36%) were called active. Inconclusive results (about 18%) are left out. No stated cut-off is given here; in the data, active means normalized growth mostly below about 0.91 (no sharp cut-off); inconclusive means no clear call, values can overlap the other calls; inactive means mostly above about 0.92. The list shows a part of the results.
Thanks in advance; please answer with one of these: active, inactive

Molecule	Category
O=c1ccc2cc(OC3OC(CO)C(O)C(O)C3O)c(O)cc2o1 (stereo unspecified)	inactive
CCCCCCC(C)OC(=O)COc1ccc(Cl)cc1Cl (stereo unspecified)	inactive

Exercise: Kindly provide the recorded test outcome for the following molecule: CC(=O)Oc1ccc2c(c1OC(C)=O)OCC1(O)Cc3c(cc(OC(C)=O)c(OC(C)=O)c3OC(C)=O)C21 (stereo unspecified)
Solution: inactive

Exercise: Call for entry `COC1=CC(=O)C(O)=C/C1=C\C=C\c1ccccc1` :
Solution: active

Exercise: Can you look up the reported call for `Cc1cc(C2CCCCC2)n(O)c(=O)c1` for me?
Solution: active

Exercise: Entry Oc1ccc2c(c1)OCC1(O)Cc3cc(O)c(O)cc3C21 (stereo unspecified) : call = ?
Solution: inactive

Exercise: Call for entry `NC(=O)c1ncn([C@@H]2O[C@H](CO)[C@@H](O)[C@H]2O)n1` :
Solution: inactive

Exercise: What outcome does the record of this test show for `COc1ccc(Cl)cc1C(=O)NCCc1ccc(S(=O)(=O)NC(=O)NC2CCCCC2)cc1` ?
Solution: inactive

Exercise: Test call, this molecule: Oc1cc2c(cc1O)C1c3ccc(O)c(O)c3OCC1(O)C2 (stereo unspecified)
Solution: inactive

Exercise: Record request — test call for `COc1ccccc1/C=C\C(=O)O`
Solution: inactive

Exercise: // param item: `C=C(C)[C@H]1COc2cc3oc(=O)ccc3cc2O1` ; yields the recorded call
Solution: inactive

----------
assay: chemical genetic growth profiling, strain panel (AID 1159580);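 also: tested at 20 µM; growth read once vehicle control cultures reached saturation at 30 °C; 1 = growth at the plate median or of vehicle wells; lower values mean less growth of the strain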; conditions: S. cerevisiae deletion strains, growth OD, locus YOR270C, strain vph1, active compounds read low
In all, about 5,500 compounds went through this assay and about 2,000 (36%) were called active. Roughly 18% stayed inconclusive and do not appear here. Some of the results follow. Where a SMILES comes first, the peptide text is derived from it.
// reported normalized growth for each item listed
API doc: respond with a numeric literal and nothing else, no unit.

Use these answered entries as a reference point.
Compound	normalized growth
O=C1C=C2C(=CCOC2O)O1 (stereo not given)	0.506
COC(=O)[C@H](Cc1ccccc1)NC(=O)[C@@H](N)CC(=O)O (H-Asp-Phe-OMe)	1.05
COc1cccc2c(C)cc(=O)[nH]c12	0.714
CC(C)c1c(O)c(-c2cc3c(c(C(C)C)c2O)CCC2C(C)(C)CCC[C@]32C)cc2c1CCC1C(C)(C)CCC[C@]21C (stereo not given in full)	1

In the following, a different compound is considered.
Exercise: Determine from records and report normalized growth for NC(=O)NCCCC(N)C(=O)O (stereo not given)
Solution: 0.964

Attribution: PubChem BioAssay AID1159580
